Test system: MOLT-4
methodSummary: NCI tumour cell line growth inhibition, 48 h
The source made the active and inactive calls. No stated cut-off is given here; in the data, active = GI50 up to about 1.1 µM and inactive = higher.
experimentalEndpoint: GI50

{"compound": "COc1ccccc1N1CCN(S(=O)(=O)c2ccc(Cl)cc2)C1=N", "experimentalEndpoint": "GI50", "resultValue": "43 µM (inactive)"}
{"compound": "C=C[C@]1(O)CCC[C@]2(C)C(=O)CCC12C (stereo partly specified)", "experimentalEndpoint": "GI50", "resultValue": "> 100 µM (inactive)"}
{"compound": "CCOC(=O)CC(C)C1(C(=O)OCC)CCCCC1=O (stereo unspecified)", "experimentalEndpoint": "GI50", "resultValue": "> 100 µM (inactive)"}
{"compound": "CC(C)(C)OC(=O)N/C=C1\\C(=O)Oc2ccccc2C1=O", "experimentalEndpoint": "GI50", "resultValue": "> 100 µM (inactive)"}
{"compound": "COc1cc(C2c3c(ccc4ccccc34)C(=O)C3CCC(=O)N32)cc(OC)c1O (stereo unspecified)", "experimentalEndpoint": "GI50", "resultValue": "> 25 µM (inactive)"}
{"compound": "OC1(c2ccc(Cl)cc2)c2ccc3ccccc3c2C2=N[C@H]3CCCC[C@@H]3N21 (stereo partly specified)", "experimentalEndpoint": "GI50", "resultValue": "8.99 µM (inactive)"}
{"compound": "COc1ccc(C2CC(c3ccccc3)=Nc3c(-c4ccccc4)nnn32)cc1 (stereo unspecified)", "experimentalEndpoint": "GI50", "resultValue": "> 100 µM (inactive)"}
{"compound": "Nc1nc(O)c2[nH]cnc2[n+]1[O-]", "experimentalEndpoint": "GI50", "resultValue": "> 100 µM (inactive)"}
{"compound": "N#CC(C#N)=CSc1ccccc1", "experimentalEndpoint": "GI50", "resultValue": "13.2 µM (inactive)"}
{"compound": "Cc1cc(C)nc(NS(=O)(=O)c2ccc(NC(=O)c3cccc4c(Nc5ccc(S(=O)(=O)Nc6cc(C)on6)cc5)c5ccccc5nc34)cc2)n1", "experimentalEndpoint": "GI50", "resultValue": "25.4 µM (inactive)"}
{"compound": "O=C(/C(=C/c1ccc(Cl)cc1)c1ccccc1)c1ccccc1", "experimentalEndpoint": "GI50", "resultValue": "17.8 µM (inactive)"}

Entry source: ChEMBL document CHEMBL1201862
